B1: Far upstream element-binding protein 3, residues 75 to 150; numbered along this chain, Q96I24 (parent)
chain: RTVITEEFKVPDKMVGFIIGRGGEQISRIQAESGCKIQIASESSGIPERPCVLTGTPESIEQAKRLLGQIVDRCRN

variants of: B1; test: abundance fitness (aPCA) (normalised: wild type 0, dead -1); higher = more abundant; growth selection in yeast, the domain comes from the species named; conditions: Homo sapiens
Assign label 1 to entries whose abundance fitness meets or exceeds -0.2; assign label 0 to the rest.

sequence.entry: RTVITEEFKVPDKMVGFIIGRGGEQISRIQAESGCKIQIASESSGIPERPCVGTGTPESIEQAKRLLGQIVDRCRN [L53G]
category: label 0
--
sequence.entry: RTVITEEFKVPDKMVGFIIGRGGEQISRIQAQSGCKIQIASESSGIPERPCVLTGTPESIEQAKRLLGQIVDRCRN [E32Q]
category: label 1
--
sequence.entry: RTVITEEFKVPDKMVGPIIGRGGEQISRIQAESGCKIQIASESSGIPERPCVLTGTPESIEQAKRLLGQIVDRCRN [F17P]
category: label 1
--
sequence.entry: VTVITEEFKVPDKMVGFIIGRGGEQISRIQAESGCKIQIASESSGIPERPCVLTGTPESIEQAKRLLGQIVDRCRN [R1V]
category: label 1
--
sequence.entry: RTVITEEFKVPDKMVGFIHGRGGEQISRIQAESGCKIQIASESSGIPERPCVLTGTPESIEQAKRLLGQIVDRCRN [I19H]
category: label 1
--
sequence.entry: RTVITEEFKVPDKMVGFIIGRTGEQISRIQAESGCKIQIASESSGIPERPCVLTGTPESIEQAKRLLGQIVDRCRN [G22T]
category: label 1
--
sequence.entry: RTVITEEFKVPDKMEGFIIGRGGEQISRIQAESGCKIQIASESSGIPERPCVLTGTPESIEQAKRLLGQIVDRCRN [V15E]
category: label 1
--
sequence.entry: RTVITEEFKVPDKMVGFIIGRGGEQISRIQAESGCKIQIASESSLIPERPCVLTGTPESIEQAKRLLGQIVDRCRN [G45L]
category: label 1
--
sequence.entry: RTVITEEFKVPDKMVGFIIGRGGEQISRIQAESGCKIQIASESSGIPERPCVLTGTPESTEQAKRLLGQIVDRCRN [I60T]
category: label 0
--
sequence.entry: RTVITEEFKVPDKMVGFIIGRGGEQISRIQAESGCKIQIASESSGIPERPCVLTGTPESAEQAKRLLGQIVDRCRN [I60A]
category: label 0
--
sequence.entry: RTVITEEFKVPDKMVGFIIGRGGEQISRIQAESGCKIQIASESSGIPERPCVLTGTPESIEQAKRLLGQSVDRCRN [I70S]
category: label 1
--
sequence.entry: RTVITEEFKVPDNMVGFIIGRGGEQISRIQAESGCKIQIASESSGIPERPCVLTGTPESIEQAKRLLGQIVDRCRN [K13N]
category: label 1
--
sequence.entry: RTVITEEFKVPDKMVGFIIGRGGFQISRIQAESGCKIQIASESSGIPERPCVLTGTPESIEQAKRLLGQIVDRCRN [E24F]
category: label 1
--
sequence.entry: RTVITEEFKVPDKMVGFGIGRGGEQISRIQAESGCKIQIASESSGIPERPCVLTGTPESIEQAKRLLGQIVDRCRN [I18G]
category: label 0
--
sequence.entry: RTVITEEFKVPDKMVGFIIGRGGEQISRIQAESGCKIQIASESSGINERPCVLTGTPESIEQAKRLLGQIVDRCRN [P47N]
category: label 1
--
sequence.entry: RTVITEEFKVPDKMTGFIIGRGGEQISRIQAESGCKIQIASESSGIPERPCVLTGTPESIEQAKRLLGQIVDRCRN [V15T]
category: label 1
--
sequence.entry: RTVITEEFKVPDKMVGFIIGRGGEQISRIQAESGCKIQIASESSGIPERPCVLTGTIESIEQAKRLLGQIVDRCRN [P57I]
category: label 1
--
sequence.entry: RTVITEEFKVPDKMVGFIIGRGGEQISRIQAEGGCKIQIASESSGIPERPCVLTGTPESIEQAKRLLGQIVDRCRN [S33G]
category: label 0
--
sequence.entry: RTVITEEFKVPDKMVGFIIGRGGEQISRIQAESGCKIQIASESSGIPERPCVLTGTPESIEQAKRCLGQIVDRCRN [L66C]
category: label 1
--
sequence.entry: RTVITEEFKVPDKMVGFIIGRGGEQISRIQAESGCKIQIASESSGIPERPCVLTGTPESIEQAKRLLGQAVDRCRN [I70A]
category: label 1
--
sequence.entry: RTVIREEFKVPDKMVGFIIGRGGEQISRIQAESGCKIQIASESSGIPERPCVLTGTPESIEQAKRLLGQIVDRCRN [T5R]
category: label 1
--
sequence.entry: RTVITEEFKVPDKMVGFIIGRGGEQISRIQAESGWKIQIASESSGIPERPCVLTGTPESIEQAKRLLGQIVDRCRN [C35W]
category: label 0
--
sequence.entry: RTVITEEFKVPDKMVGFIIGRGGEQISRIQAESGCKIQIASESSGIPERPCVLTGTPESIEQAKRLLGQIVDRCFN [R75F]
category: label 1
--
sequence.entry: RTVITEEFKRPDKMVGFIIGRGGEQISRIQAESGCKIQIASESSGIPERPCVLTGTPESIEQAKRLLGQIVDRCRN [V10R]
category: label 0
--
sequence.entry: RTVITEFFKVPDKMVGFIIGRGGEQISRIQAESGCKIQIASESSGIPERPCVLTGTPESIEQAKRLLGQIVDRCRN [E7F]
category: label 1
--
sequence.entry: RTVITEEFKVPDKMVGFIIGRGCEQISRIQAESGCKIQIASESSGIPERPCVLTGTPESIEQAKRLLGQIVDRCRN [G23C]
category: label 1
--
sequence.entry: RTVITEEFKVPDKMVGFIIGRGGEQISRIQAESGCKIQIASESSGIPERPCVLTGTPESIEQAKQLLGQIVDRCRN [R65Q]
category: label 1
--
sequence.entry: RTVITEERKVPDKMVGFIIGRGGEQISRIQAESGCKIQIASESSGIPERPCVLTGTPESIEQAKRLLGQIVDRCRN [F8R]
category: label 0
--
sequence.entry: RTVITEEFKVPDKMVGFIIGRGGEQISRIQAESGCKIQIASESSGIPERPCVLTGTPESIEQAKKLLGQIVDRCRN [R65K]
category: label 1
--
sequence.entry: RTWITEEFKVPDKMVGFIIGRGGEQISRIQAESGCKIQIASESSGIPERPCVLTGTPESIEQAKRLLGQIVDRCRN [V3W]
category: label 1
--
sequence.entry: RTVITEEFKVPDKMVGFIIGRGGCQISRIQAESGCKIQIASESSGIPERPCVLTGTPESIEQAKRLLGQIVDRCRN [E24C]
category: label 1
--
sequence.entry: RTVITYEFKVPDKMVGFIIGRGGEQISRIQAESGCKIQIASESSGIPERPCVLTGTPESIEQAKRLLGQIVDRCRN [E6Y]
category: label 1
--
sequence.entry: RTVITEEFKVPDKMVGFIIGRGGEQISRIQAESGCKIQIASESSGIPERDCVLTGTPESIEQAKRLLGQIVDRCRN [P50D]
category: label 1
--
sequence.entry: RTVITEEFKVPDKMVGFIIPRGGEQISRIQAESGCKIQIASESSGIPERPCVLTGTPESIEQAKRLLGQIVDRCRN [G20P]
category: label 0

Data origin: the Human Domainome abundance scans (Beltran et al. 2025)
